Where do these numbers come from? They come from patent US20090311217A1.

TARGET: human TOR (Homo sapiens, UniProt P42345)
Construct: FLAG
PROTOCOL_SUMMARY: mTOR enzyme assay (DELFIA, His6-S6K substrate)
Format: biochemical
PROTOCOL_CONDITIONS: read-out: mTOR Kinase Avg. IC50
MEASUREMENT_TYPE: IC50 (nM)

// solved cases for IC50 follow
CHEMICAL_STRING: O=C1C(=Cc2c(-c3ccccc3)n(CCC3CCNCC3)c3ccccc23)Oc2cc(O)cc(O)c21
UNIT_INFO: nM
IC50: 4600
--
CHEMICAL_STRING: N#CCCCn1cc(C=C2Oc3cc(O)cc(O)c3C2=O)c2c(O)cccc21
UNIT_INFO: nM
IC50: 12000
--
CHEMICAL_STRING: CNC(=O)Nc1cc2c(cc1C)O/C(=C\c1c(C)n(CCN3CCN(C)CC3)c3ccc(OC)cc13)C2=O
UNIT_INFO: nM
IC50: 1450

[1] COc1ccc2c(c1)c(/C=C1\Oc3cc(O)cc(O)c3C1=O)c(C(F)(F)F)n2CC(=O)N(C)C
[2] CNC(=O)Nc1cc(C)c2c(c1)C(=O)/C(=C/c1c(C)n(CCN3CCN(C)CC3)c3ccc(OC)cc13)O2
[3] Cn1cc(C=C2Oc3cc(O)cc(O)c3C2=O)c2c(C#N)cccc21
[4] Cc1noc(C)c1-c1c(C=C2Oc3cc(O)cc(O)c3C2=O)c2ccccc2n1C
[5] CNCCNC(=O)Nc1ccc2c(c1)C(=O)/C(=C/c1c(-c3c(C)nn(C)c3C)[nH]c3c(F)cc(OC)cc13)O2
Q: // smallest IC50 at index 0, largest at the end List the labels, following the order given in the request.
Ans: 5, 1, 3, 4, 2
(5: 7 nM, 1: 53 nM, 3: 260 nM, 4: 390 nM, 2: 1480 nM)

* * *

TARGET: PI3K-alpha (Homo sapiens)
Sequence (P42336 whole entry, species assumed): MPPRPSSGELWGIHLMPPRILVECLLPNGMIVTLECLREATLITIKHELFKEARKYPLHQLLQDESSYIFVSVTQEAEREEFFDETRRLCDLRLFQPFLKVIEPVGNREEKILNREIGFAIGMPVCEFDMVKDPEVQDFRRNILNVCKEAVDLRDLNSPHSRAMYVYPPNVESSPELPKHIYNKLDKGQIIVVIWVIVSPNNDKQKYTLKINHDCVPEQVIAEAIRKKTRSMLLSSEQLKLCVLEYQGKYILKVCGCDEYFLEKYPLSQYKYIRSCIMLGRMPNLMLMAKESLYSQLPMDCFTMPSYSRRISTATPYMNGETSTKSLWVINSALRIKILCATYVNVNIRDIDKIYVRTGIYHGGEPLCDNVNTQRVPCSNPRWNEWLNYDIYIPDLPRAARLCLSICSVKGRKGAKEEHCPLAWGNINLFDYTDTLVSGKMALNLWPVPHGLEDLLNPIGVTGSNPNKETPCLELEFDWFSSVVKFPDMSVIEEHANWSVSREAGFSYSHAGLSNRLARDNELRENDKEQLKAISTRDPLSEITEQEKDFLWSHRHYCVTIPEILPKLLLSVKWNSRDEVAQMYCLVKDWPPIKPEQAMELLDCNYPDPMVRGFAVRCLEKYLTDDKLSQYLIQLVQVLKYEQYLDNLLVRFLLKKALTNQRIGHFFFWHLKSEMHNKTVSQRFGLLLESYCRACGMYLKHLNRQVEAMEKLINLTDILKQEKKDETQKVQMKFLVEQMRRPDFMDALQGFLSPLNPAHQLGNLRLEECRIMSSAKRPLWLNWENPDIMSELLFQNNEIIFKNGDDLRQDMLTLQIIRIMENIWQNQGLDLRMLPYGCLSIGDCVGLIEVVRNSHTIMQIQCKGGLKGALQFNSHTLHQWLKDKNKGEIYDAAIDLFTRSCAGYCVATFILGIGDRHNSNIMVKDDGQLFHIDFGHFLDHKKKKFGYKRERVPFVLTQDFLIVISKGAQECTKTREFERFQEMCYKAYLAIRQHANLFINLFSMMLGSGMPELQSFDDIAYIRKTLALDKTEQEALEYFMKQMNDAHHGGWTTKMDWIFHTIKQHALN
Sequence (P27986 whole entry partner, species assumed): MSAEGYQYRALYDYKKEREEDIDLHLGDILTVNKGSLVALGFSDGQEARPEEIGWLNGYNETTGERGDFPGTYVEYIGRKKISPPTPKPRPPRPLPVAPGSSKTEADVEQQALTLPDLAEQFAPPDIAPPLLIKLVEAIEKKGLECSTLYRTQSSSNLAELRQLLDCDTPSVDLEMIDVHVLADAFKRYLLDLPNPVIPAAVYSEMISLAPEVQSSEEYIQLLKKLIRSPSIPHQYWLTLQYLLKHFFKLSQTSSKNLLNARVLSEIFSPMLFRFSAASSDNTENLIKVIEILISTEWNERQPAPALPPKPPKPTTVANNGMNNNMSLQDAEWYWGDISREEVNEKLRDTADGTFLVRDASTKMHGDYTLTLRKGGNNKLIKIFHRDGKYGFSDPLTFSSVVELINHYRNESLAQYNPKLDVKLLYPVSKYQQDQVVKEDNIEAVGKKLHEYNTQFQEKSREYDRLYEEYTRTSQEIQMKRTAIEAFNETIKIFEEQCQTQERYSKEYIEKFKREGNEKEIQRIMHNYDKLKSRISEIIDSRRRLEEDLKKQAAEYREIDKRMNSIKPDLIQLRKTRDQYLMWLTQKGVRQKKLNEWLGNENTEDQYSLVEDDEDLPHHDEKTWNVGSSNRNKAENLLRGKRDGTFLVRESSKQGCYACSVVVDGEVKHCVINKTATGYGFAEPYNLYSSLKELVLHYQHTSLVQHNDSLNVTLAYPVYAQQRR
PROTOCOL_SUMMARY: PI3K-alpha fluorescence polarization assay
Format: biochemical
PROTOCOL_CONDITIONS: read-out: PI3Kα Avg. IC50
MEASUREMENT_TYPE: IC50 (nM)

// solved cases for IC50 follow
COMPOUND: CNC(=O)Nc1ccc2c(c1)C(=O)/C(=C/c1c(-c3nc(C(C)C)no3)n(CCN3CCN(C)CC3)c3ccc(OC)cc13)O2 [Compound 621]
TARGET: PI3K-alpha (Homo sapiens)
UNIT_INFO: nM
IC50: 3.5
//
COMPOUND: CNCCCNC(=O)Nc1ccc2c(c1)C(=O)/C(=C/c1cn(CCN3CCN(C)CC3)c3ccc(OC)cc13)O2
TARGET: PI3K-alpha (Homo sapiens)
UNIT_INFO: nM
IC50: 95.5
//
COMPOUND: N#CCCCCCn1c(-c2ccccc2)c(C=C2Oc3cc(O)cc(O)c3C2=O)c2ccccc21
TARGET: PI3K-alpha (Homo sapiens)
UNIT_INFO: nM
IC50: 968

[1] COc1ccc2c(c1)c(C=C1Oc3cc(O)cc(O)c3C1=O)c(C)n2CCCCN1CCN(C)CC1
[2] N#CCCCn1cc(C=C2Oc3cc(O)cc(O)c3C2=O)c2c(Br)cccc21
Q: Which numeric IC50 is bigger, that of 1 or that of 2 ? Write down the label attached to your selection.
Ans: 2
(2: 2020 nM, 1: 11.3 nM)

[A] CNC(=O)Nc1ccc2c(c1)C(=O)/C(=C/c1c(-c3c(C)nn(C)c3C)n(CCN(C)C)c3ccc(OC)cc13)O2
[B] Cc1ccc2c(c1)C(=O)/C(=C/c1c[nH]c3ccccc13)S2
Q: Which numeric IC50 is bigger, that of A or that of B ? Write down the label attached to your selection.
Ans: B
(B: 10700 nM, A: 12.5 nM)

[A] COc1ccc2c(c1)c(/C=C1\Oc3ccc(NC(=O)NC4CNC4)cc3C1=O)cn2CCN1CCN(C)CC1
[B] COc1ccc2c(c1)c(/C=C1\Oc3cc(O)cc(F)c3C1=O)c(C)n2CCN1CCN(C)CC1
[C] CCn1c(C)c(/C=C2\Oc3ccc(NC(=O)Nc4ccc(CCCCN(C)C)cc4)cc3C2=O)c2cc(OC)ccc21
Q: Order the 3 compounds from highest to lowest IC50. List the labels, following the order given in the request.
Ans: A, B, C
(A: 355 nM, B: 11 nM, C: 5.73 nM)

* * *

TARGET: PI3K-delta (Homo sapiens, UniProt O00329)
Sequence (O00329 whole entry, species assumed, one chain of several): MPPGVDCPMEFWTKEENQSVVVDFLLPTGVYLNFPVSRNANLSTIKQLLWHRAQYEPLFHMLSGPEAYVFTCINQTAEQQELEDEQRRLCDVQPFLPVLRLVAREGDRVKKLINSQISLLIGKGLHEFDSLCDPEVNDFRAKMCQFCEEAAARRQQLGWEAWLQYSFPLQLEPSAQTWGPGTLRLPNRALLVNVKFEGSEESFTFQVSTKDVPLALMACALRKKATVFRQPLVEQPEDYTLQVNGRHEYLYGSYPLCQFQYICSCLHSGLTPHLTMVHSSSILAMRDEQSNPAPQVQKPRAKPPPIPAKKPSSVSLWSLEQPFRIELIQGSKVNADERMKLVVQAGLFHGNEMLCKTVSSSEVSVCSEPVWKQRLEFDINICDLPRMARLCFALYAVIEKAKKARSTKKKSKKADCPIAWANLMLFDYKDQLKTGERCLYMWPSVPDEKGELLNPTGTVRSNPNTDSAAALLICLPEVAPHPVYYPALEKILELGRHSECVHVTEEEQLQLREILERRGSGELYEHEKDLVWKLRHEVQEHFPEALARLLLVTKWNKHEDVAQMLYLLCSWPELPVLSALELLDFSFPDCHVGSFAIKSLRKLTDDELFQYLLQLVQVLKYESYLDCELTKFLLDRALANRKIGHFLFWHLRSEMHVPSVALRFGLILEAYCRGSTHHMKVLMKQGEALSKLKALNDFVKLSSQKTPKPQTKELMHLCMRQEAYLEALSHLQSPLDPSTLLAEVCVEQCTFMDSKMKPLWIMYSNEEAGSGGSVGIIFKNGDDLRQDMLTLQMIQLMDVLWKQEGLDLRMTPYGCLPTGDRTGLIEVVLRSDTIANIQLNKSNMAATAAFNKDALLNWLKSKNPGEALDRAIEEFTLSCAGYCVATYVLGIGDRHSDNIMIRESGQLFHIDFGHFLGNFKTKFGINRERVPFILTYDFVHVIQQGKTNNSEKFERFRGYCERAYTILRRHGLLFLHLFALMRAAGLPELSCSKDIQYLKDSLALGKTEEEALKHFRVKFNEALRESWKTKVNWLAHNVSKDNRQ
PROTOCOL_SUMMARY: PI3K-delta fluorescence polarization assay
Format: biochemical
MEASUREMENT_TYPE: pIC50
API: returns pIC50 as number; meaning -log10 of concentration in mol/L.

CHEMICAL_STRING: COc1ccc2c(c1)c(C=C1Oc3cc(O)cc(O)c3C1=O)cn2C
pIC50: 6.96

Q: Request - read-out pIC50 | tested on PI3K-delta (Homo sapiens, UniProt O00329) | compound COc1ccc2c(c1)c(/C=C1\Oc3cc(O)cc(O)c3C1=O)c(C)n2CCCN(C)C
Ans: 8.30

* * *

TARGET: human TOR (Homo sapiens)
Construct: FLAG
PROTOCOL_SUMMARY: mTOR enzyme assay (DELFIA, His6-S6K substrate)
Format: biochemical
PROTOCOL_CONDITIONS: read-out: mTOR Kinase Avg. IC50
MEASUREMENT_TYPE: IC50 (nM)

// solved cases for IC50 follow
COMPOUND: COC(=O)Nc1ccc(-c2cccc3c2c(/C=C2\Oc4cc(O)cc(O)c4C2=O)cn3C)cc1 [Example 391]
TARGET: human TOR (Homo sapiens)
IC50, nM: 38.5
//
COMPOUND: CCn1c(C)c(/C=C2\Oc3ccc(NC(=O)Nc4ccc(C(=O)N(C)CCCN(C)C)cc4)cc3C2=O)c2cc(OC)ccc21 [Compound 657]
TARGET: human TOR (Homo sapiens)
IC50, nM: 84
//
COMPOUND: COc1cccc(-c2[nH]c3ccccc3c2C=C2Oc3cc(O)cc(O)c3C2=O)c1 [Example 209]
TARGET: human TOR (Homo sapiens)
IC50, nM: 490

[1] COc1ccc2[nH]c(CN(C)C)c(/C=C3\Oc4cc(O)cc(O)c4C3=O)c2c1 [Example 353]
[2] O=C1C(=Cc2c[nH]c3cccc(Br)c23)Oc2cc(O)cc(O)c21 [Example 174]
[3] CNC(=O)Nc1ccc2c(c1)C(=O)/C(=C/c1c(-c3c(C)n[nH]c3C)[nH]c3ccc(OC)cc13)O2 [Compound 625]
[4] CNC(=O)Nc1ccc2c(c1)C(=O)/C(=C/c1c(C(C)(C)C)[nH]c3ccc(OC)cc13)O2 [Compound 631]
[5] CNC(=O)Nc1ccc2c(c1)C(=O)/C(=C/c1c(-c3c(C)nn(C)c3C)n(CCN(C)CCN(C)C)c3ccc(OC)cc13)O2 [Compound 665]
Q: // smallest IC50 at index 0, largest at the end List the labels, following the order given in the request.
Ans: 3, 4, 1, 5, 2
(3: 1 nM, 4: 2 nM, 1: 22 nM, 5: 39 nM, 2: 7100 nM)

* * *

TARGET: PI3K-alpha (Homo sapiens)
PROTOCOL_SUMMARY: PI3K-alpha fluorescence polarization assay
Assay type: biochemical
PROTOCOL_CONDITIONS: read-out: PI3Kα Avg. IC50
pIC50: −log10 of the molar value.
MEASUREMENT_TYPE: pIC50

// solved cases for pIC50 follow
COMPOUND: COc1cc(F)c2[nH]c(-c3c(C)nn(C)c3C)c(/C=C3\Oc4ccc(NC(=O)Nc5ccc(C(=O)N6CCC(N(C)C)C6)cc5)cc4C3=O)c2c1 (stereo not shown)
RESULT: 9.48

COMPOUND: COc1ccc2c(c1)c(/C=C1\Oc3cc(O)cc(O)c3C1=O)c(C1CCCCC1)n2CCN1CCN(C)CC1
RESULT: 8.77

COMPOUND: Cn1cc(/C=C2\Oc3cc(O)cc(O)c3C2=O)c2c(-c3ccccc3)cccc21
RESULT: 6.47

COMPOUND: N#CCCCn1c(-c2ccccc2)c(C=C2Oc3cc(O)cc(O)c3C2=O)c2ccccc21
RESULT: 6.29

COMPOUND: CNC(=O)Nc1ccc2c(c1)C(=O)/C(=C/c1c(C3CCCCC3)[nH]c3ccc(OC)cc13)O2
RESULT: 8.80

COMPOUND: N#CCCCn1cc(C=C2Oc3cc(O)cc(O)c3C2=O)c2c(C#N)cccc21
RESULT: 5.41

COMPOUND: COc1ccc2[nH]c(-c3cncnc3)c(/C=C3\Oc4cc(O)cc(O)c4C3=O)c2c1
RESULT: 8.19

COMPOUND: COc1ccc2c(c1)c(C=C1Oc3c(ccc(O)c3O)C1=O)c(C)n2CCCCN1CCN(C)CC1
RESULT: 5.80

COMPOUND: CNC(=O)Nc1ccc2c(c1)C(=O)/C(=C/c1c(-c3c(C)nn(C)c3C)n(CCNCCO)c3ccc(OC)cc13)O2
RESULT: 8.53

COMPOUND: Cc1c(C=C2Oc3cc(O)cc(O)c3C2=O)c2cc(Cl)ccc2n1CCCC#N
RESULT: 6.54

[P] CNC(=O)Nc1ccc2c(c1)C(=O)/C(=C/c1c(-c3c(C)nn(C)c3C)n(CCCC#N)c3ccc(OC)cc13)O2
[Q] COC(=O)Nc1ccc(-c2cccc3c2c(/C=C2\Oc4cc(O)cc(O)c4C2=O)cn3C)cc1
Q: Given the two records P and Q , choose the one whose pIC50 value is lower. Write down the label attached to your selection.
Ans: Q

[a] COc1ccc2c(c(C=C3Oc4cc(O)cc(O)c4C3=O)cn2CCCC#N)c1C
[b] COc1ccc2c(c1)c(/C=C1\Oc3cc(O)c(Cl)cc3C1=O)c(C)n2CCCN(C)C
Q: Given the two records a and b , choose the one whose pIC50 value is lower. Write down the label attached to your selection.
Ans: a
